EXPERIMENT: restored growth of temperature-sensitive Mot1-301 yeast – S. cerevisiae, ATP luminescence, 38.5C, SUMOylation pathway inhibitor project, primary screen (AID 2716);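 note: OY570 slx delta 5 strain wells were the positive control but not used for scaling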
ASSAY_SETUP: S. cerevisiae Mot1-301 growth rescue, at 18.8 µM, active compounds read high, percent above DMSO median, 100 means doubled
Out of some 320,000 compounds screened, about 3,300 (1%) were called active. The sample as a whole holds a higher share of actives than the screen did.
Assign True to entries whose growth rescue meets or exceeds 30%; assign False to the rest.

COMPOUND	CLASS_NAME
CN1CCN(C(=O)C2C3C=CC(C3)C2C(=O)O)CC1 (configuration not stated)	False
Fc1ccc2cnc(-c3ccccc3)cc2c1	True
O=C(NC1CCCC1)C(c1ccc(N2CCOCC2)cc1)N(C(=O)c1ccco1)c1ccccc1F (configuration not stated)	True
CCc1nc2ccccc2c(C(=O)NCc2ccc(OC)cc2)c1C	False
COc1cccc(NC(=O)COc2cccnc2[N+](=O)[O-])c1	False
COc1ccc(CCNC(=O)CCC(=O)NC2CCCCC2)cc1OC	False
Cn1c(C(=O)NCCCN2CCN(c3cccc(Cl)c3)CC2)cc2c(=O)n(C)c3ccccc3c21	False
CCCCCCCCCCCCN1[C@@H](CC(C)=O)c2cc(F)cc(F)c2S1(=O)=O	False
Cn1c(C(=O)NCCc2ccsc2)cc2c(=O)n(C)c3ccccc3c21	True
Cc1cccc(NC(=S)N(CCN(C)C)C(C)c2ccco2)c1 (configuration not stated)	True
C=C(Cl)COC(=O)C1C2C=CC(C2)C1C(=O)O (configuration not stated)	True
COc1ccc(N(CC(=O)Nc2cc(OC)ccc2OC)S(=O)(=O)c2c(C)noc2C)cc1	False
O=C(CN1C(=O)NC2(CCCC2)C1=O)Nc1ccc(F)c(F)c1F	False
Nc1nc(SCc2cccc(Br)c2)n[nH]1	True
CCOC(=O)C1CCc2nc3ccccc3c(=O)n21 (configuration not stated)	True
COc1ccccc1CNC(=O)[C@@H]1CCCN1C(=O)[C@@H]1Cc2ccccc2CN1C(=O)OC(C)(C)C	False
COc1ccc(-c2c(C#Cc3ccsc3)c3cc(-c4ccc(CN5CCOCC5)cc4)ccc3n2C)cc1	False
CCOc1ccc(CCNC(=O)COC(=O)CCS(=O)(=O)c2ccc(C)cc2)cc1OCC	False
Cc1ccc(N(C(=O)c2ccc(CN3CCOCC3)o2)C(C(=O)NCCC(C)C)c2cccs2)c(C)c1 (configuration not stated)	False
O=C(OCC(=O)N1CCc2ccccc21)C1CCCN1S(=O)(=O)c1ccc(Cl)cc1 (configuration not stated)	False
CC1Sc2ccc(C(=O)NCc3ccccc3Cl)cc2NC1=O (configuration not stated)	False

* * *

EXPERIMENT: restored growth of temperature-sensitive Mot1-301 yeast – S. cerevisiae, ATP luminescence, 38.5C, SUMOylation pathway inhibitor project, primary screen (AID 2716);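 note: OY570 slx delta 5 strain wells were the positive control but not used for scaling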
ASSAY_SETUP: S. cerevisiae Mot1-301 growth rescue, at 18.8 µM, percent above DMSO median, 100 means doubled
Out of some 320,000 compounds screened, about 3,300 (1%) were called active.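 Rule for the calls: active = every valid replicate shows activation above 250% relative to neutral control wells; inactive = the rest, any valid replicate at or below 250%.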 The full list was thinned out, with actives kept by preference.
Outcomes: 1.0 = active, 0.0 = inactive

COMPOUND	CLASS_NAME
Cc1cc(C)c(S(=O)(=O)NCC2CCC(C(=O)NCc3ccc4c(c3)OCO4)CC2)c(C)c1 (stereo not drawn)	0.0
O=C(Nc1nn(Cc2ccccc2F)cc1Br)c1cccs1	0.0
COc1cc(CO)ccc1OCC(=O)Nc1cccc2ccccc12	1.0
Cc1nc2ccc(C(=O)N(C)CC3CCCN(CCc4ccc(Cl)cc4)C3)cc2[nH]1 (stereo not drawn)	0.0
COc1ccc(N(CCC(=O)NCCc2ccccc2)S(=O)(=O)c2ccc(C)cc2C)cc1	0.0
COc1ccc(-c2ccc(CCC(=O)O)n2NC(=O)c2ccc(C(C)(C)C)cc2)cc1	0.0
COc1cccc(CNCc2ccc3c(c2)OCO3)c1	0.0
O=C(NCc1ccccc1Cl)c1ccc2c(=O)n(CC3CCCO3)c(=S)[nH]c2c1 (stereo not drawn)	0.0
CCCCC(=O)N/N=C(\C)CC(=O)Nc1cc(Cl)ccc1OC	1.0
COc1ccc(CCN2C(=O)N(c3ccc(OC)cc3)C(=O)C2CC(=O)Nc2ccc(OC)cc2)cc1 (stereo not drawn)	0.0
CCc1noc(C)c1C(=O)Oc1ccc(N(C)S(=O)(=O)c2ccc(C)c(C)c2)cc1	0.0
Cc1cc(C)c(S(=O)(=O)Nc2c(C)n(C)n(-c3ccccc3)c2=O)cc1[N+](=O)[O-]	0.0
Cc1cccc(NC(=O)CN2CCN(C(=O)C3CCN(C(=O)/C=C/c4ccccc4)CC3)CC2)c1C	0.0
COc1ccc(CCNC(=O)/C(C#N)=C2\N=C(NC(=O)c3cccs3)c3ccccc32)cc1	0.0
O=C(NC1CCCCC1)c1ccc2c(=O)n(CC3CCCO3)c(=O)[nH]c2c1 (stereo not drawn)	1.0
COc1cc(CNCc2ccc3c(c2)OCO3)c([N+](=O)[O-])cc1OC	1.0
COc1ccc(CNS(=O)(=O)c2ccc(NC(=O)N3CCCCC3)cc2)cc1	0.0
Cc1ccc(S(=O)(=O)CCC(=O)OCc2ccccc2)cc1	0.0
CCCCNC(=O)CSc1nc2n[nH]c(C)c2c(=N)n1-c1cccc(Cl)c1C	0.0
Cc1onc(-c2ccccc2Cl)c1C(=O)OCC(=O)c1ccccc1	0.0
COC(=O)Cn1c(O)c(N=NC(=O)OC)c2ccccc21	0.0
COc1ccc(OC)c(-n2cc3c(=O)n(C)c(=O)n(C)c3c2)c1	0.0
Cc1ccc2[nH]c(=O)c(CC(=O)O)c(-c3ccccc3)c2c1	0.0
COc1ccc(/C(C)=N/NC(=O)CCC(=O)Nc2ccc(Cl)cc2Cl)c(OC)c1	0.0
Cn1c(NC(=O)c2ccccc2)nc2ccccc21	0.0
Oc1oc(-c2ccccc2Br)nc1/C=N/c1ccccn1	0.0
CN(C(=O)COC(=O)Cc1ccccc1[N+](=O)[O-])C1CCS(=O)(=O)C1 (stereo not drawn)	0.0
COc1ccc(Cl)cc1NC(=O)CNc1ccccc1F	0.0
Cc1cc(C)cc(C(=O)NC(CC(N)=O)c2ccc(N3CCC(N4CCCCC4)CC3)c([N+](=O)[O-])c2)c1 (stereo not drawn)	1.0
Cc1cccc(N(C)C(=O)c2cc3c(=O)[nH]c4ccc(C)cc4c3s2)c1	1.0
COc1ccc(C)cc1NC(=O)C(Sc1ccccc1)c1ccccc1 (stereo not drawn)	0.0
CC1CN(C(=S)Nc2ccc(S(N)(=O)=O)cc2)CC(C)O1 (stereo not drawn)	0.0
CC1CCN(C(=S)NC2CC3CCC2C3)CC1 (stereo not drawn)	0.0
COc1ccc(OC)c(C(=O)NC(CC(N)=O)c2ccc(N3CCC(N4CCCCC4)CC3)c([N+](=O)[O-])c2)c1 (stereo not drawn)	0.0
Cc1cc(S(=O)(=O)c2cc3ccc(O)c(C)c3oc2=O)ccc1F	0.0
O=c1c2c(-c3ccccc3)ccnc2[nH]n1-c1ccccc1	0.0
COc1ccc(N(CC(=O)Nc2cccc3ccccc23)S(C)(=O)=O)c(OC)c1	0.0
CCNC(=O)CC1C(=O)N(c2ccc(F)cc2)C(=O)N1Cc1cccs1 (stereo not drawn)	0.0
CCOc1cnc(-c2c(-c3ccccc3Cl)noc2C)o1	1.0
CCC(=C/c1sc2ccc3ccccc3c2[n+]1C)/C=C1\Sc2ccc3ccccc3c2N1C	0.0
Cc1ccc(S(=O)(=O)CCC(=O)OCC(=O)N(C)C2CCS(=O)(=O)C2)cc1 (stereo not drawn)	1.0
CCN(CC)c1ccc(C(=O)OCC(=O)c2ccco2)cc1	0.0
COc1cc(OC)cc(C(=O)Nc2nnc(SCC(=O)NCC3CCCO3)s2)c1 (stereo not drawn)	0.0

meta.source: PubChem BioAssay AID2716
